test system: ryegrass, Italian; assay: Test A pre-/postemergence herbicide test; type: in vivo, Lolium multiflorum; details: preemergence; 500 g ai/ha; 0 to 100 scale, 0 is no effect and 100 is complete control
MEASUREMENT_TYPE: Plant response rating, Ryegrass, Italian

[
  {
    "COMPOUND": "Cc1cc(NC(=O)C2C(=O)NCC2c2cccc(C(F)(F)F)c2)ccc1F (racemic) [Compound 185]",
    "TEST_TARGET": "ryegrass, Italian",
    "REPORTED_RESULT": 20
  },
  {
    "COMPOUND": "O=C1NCC(c2ccc(-c3ccccc3C(F)(F)F)cc2)C1C(=O)Nc1cccc(F)c1F (stereo not drawn) [Compound 236]",
    "TEST_TARGET": "ryegrass, Italian",
    "REPORTED_RESULT": 50
  },
  {
    "COMPOUND": "O=C1NCC(c2cccc(C3CC3)c2)C1C(=O)Nc1cccc(F)c1F (racemic) [Compound 167]",
    "TEST_TARGET": "ryegrass, Italian",
    "REPORTED_RESULT": 70
  },
  {
    "COMPOUND": "O=C1NCC(c2cccc(C(F)F)c2)C1C(=O)Nc1ccc(F)c(F)c1F (racemic) [Compound 165]",
    "TEST_TARGET": "ryegrass, Italian",
    "REPORTED_RESULT": 20
  },
  {
    "COMPOUND": "COc1ccc(C2CNC(=O)C2C(=O)Nc2cccc(F)c2F)cc1C(F)(F)F (stereo not drawn) [Compound 234]",
    "TEST_TARGET": "ryegrass, Italian",
    "REPORTED_RESULT": 30
  },
  {
    "COMPOUND": "O=C1NCC(c2cccc(OC(F)F)c2)C1C(=O)Nc1ccccc1C(F)(F)F (stereo not drawn) [Compound 222]",
    "TEST_TARGET": "ryegrass, Italian",
    "REPORTED_RESULT": 50
  },
  {
    "COMPOUND": "CC(C)(C)c1cccc(C2CNC(=O)C2C(=O)Nc2cccc(F)c2F)c1 (racemic) [Compound 200]",
    "TEST_TARGET": "ryegrass, Italian",
    "REPORTED_RESULT": 0
  },
  {
    "COMPOUND": "O=C1NCC(c2cccc(C3CC3)c2)C1C(=O)Nc1ccccc1F (racemic) [Compound 166]",
    "TEST_TARGET": "ryegrass, Italian",
    "REPORTED_RESULT": 60
  },
  {
    "COMPOUND": "O=C1NCC(c2cccc(C(F)(F)F)c2)C1C(=O)Nc1ccc(F)cc1F (racemic) [Compound 207]",
    "TEST_TARGET": "ryegrass, Italian",
    "REPORTED_RESULT": 40
  }
]

* * *

tested on: wheat; experiment: Test A pre-/postemergence herbicide test; format: in vivo, Triticum aestivum; settings: Postemergence, 500 g ai/ha; 0 to 100 scale (0 no effect, 100 complete control)
Items are presented alongside their recorded Plant response rating, Wheat.

[
  {
    "COMPOUND": "O=C1NCC(c2cccc(Br)c2)C1C(=O)Nc1cccc(F)c1F (stereo not shown) [Compound 309]",
    "Plant response rating, Wheat": 60
  },
  {
    "COMPOUND": "O=C1NCC(c2ccc(C(F)(F)F)c(Cl)c2)C1C(=O)Nc1ccccc1C(F)(F)F (racemic) [Compound 251]",
    "Plant response rating, Wheat": 0
  },
  {
    "COMPOUND": "O=C1NCC(c2cc3ccccc3o2)C1C(=O)Nc1ccccc1F (racemic) [Compound 281]",
    "Plant response rating, Wheat": 0
  },
  {
    "COMPOUND": "CC1NC(=O)C(C(=O)Nc2ccccc2F)C1c1ccc(F)c(F)c1 (mixture of isomers) [Compound 7]",
    "Plant response rating, Wheat": 0
  }
]
